PROCEDURE_TEXT: viability loss with induced miR-34 in A549 – imaging, A549 dox-inducible miR-34, nuclei and caspase counts, primary screen (AID 1347080)
MEASUREMENT_CONDITIONS: A549 miR-34 inducible, Hoechst nuclei count, 48 h; measured here: total cells without miR-34 induction
QUANTITY_KIND: cell count
# respond with the number and nothing more

{"columns": ["COMPOUND", "cell count"],
 "data": [
  ["c1ccc(CNc2nc(NCc3ccccc3)c3ccccc3n2)cc1", 4310]
]}

Could you now consider this next compound?
Any idea what its cell count is? The compound is CCCCCC(=O)CC[C@H]1[C@H](O)CC(=O)[C@@H]1C/C=C\CCCC(=O)O 6290

* * *

PROCEDURE_TEXT: drug combination growth inhibition, ovarian cancer – cell-based, oncology-focused library, rucaparib conditional, profiling panel (AID 1508598)
MEASUREMENT_CONDITIONS: patient-derived ovarian cancer cells, CellTiter-Glo viability, 144 h; at 1.25 µM; OCI-C5x cells; with rucaparib 10 µM; 100% = cells with rucaparib alone
Calls of active or inactive are those of the source.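 How the source made its calls: active means normalized viability below 100% at a tested concentration; inactive means the rest.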
I would appreciate it if you answered using one of these outcomes: True = active, False = inactive

Returns: the outcome recorded for Cc1ccc(C(=O)Nc2ccc(CN3CCN(C)CC3)c(C(F)(F)F)c2)cc1C#Cc1cnc2cccnn12 in this assay. True

Identify the outcome logged in this assay for the molecule shown: Cn1cc(-c2ccc3nnc(C(F)(F)c4ccc5ncccc5c4)n3n2)cn1 False

Given COc1cc2c(Oc3ccc4[nH]c(C)cc4c3F)ncnc2cc1OCCCN1CCCC1 , state the outcome it received in this test. False

* * *

PROCEDURE_TEXT: drug combination growth inhibition, ovarian cancer – cell-based, oncology-focused library, rucaparib conditional, profiling panel (AID 1508598)
MEASUREMENT_CONDITIONS: patient-derived ovarian cancer cells, CellTiter-Glo viability, 144 h; at 0.000305 µM; OCI-P5x cells; with rucaparib 20 µM; 100% = cells with rucaparib alone
The source made the active and inactive calls.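 How the source made its calls: active means normalized viability below 100% at a tested concentration; inactive means the rest.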
// classify into active, inactive

Look over these answered cases.
{"columns": ["STRUCTURE_STRING", "CAT"],
 "data": [
  ["CC(C)c1cc(-c2n[nH]c(=O)n2-c2ccc3c(ccn3C)c2)c(O)cc1O", "inactive"],
  ["CC1(C)CCC(c2ccc(Cl)cc2)=C(CN2CCN(c3ccc(C(=O)NS(=O)(=O)c4ccc(N[C@H](CCN5CCOCC5)CSc5ccccc5)c(S(=O)(=O)C(F)(F)F)c4)cc3)CC2)C1", "inactive"]
]}

Outcome? Cc1ccc(S(=O)(=O)Nc2nc3ccccc3nc2Nc2ccc3nsnc3c2)cc1 inactive

How did this test come out for Cn1cnc(=N)c2[nH]cnc21 ? active

Call for entry O=C(/C=C/c1cccc(S(=O)(=O)Nc2ccccc2)c1)NO : inactive

* * *

PROCEDURE_TEXT: growth inhibition, single agent or in combination, cell-based, chromothripsis tumors, cisplatin or BGB combos (AID 1671449);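 also: cells exposed for 96 hours; 0% = vehicle DMSO and 100% = killing by high DMSO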
MEASUREMENT_CONDITIONS: LFS_MB_P medulloblastoma cells, measured here: combination with BGB IC40, at 0.05 µM
QUANTITY_KIND: inhibition (%)
Provide the reading as a plain figure in %.

Solved entries (count: 8):
{"columns": ["COMPOUND", "inhibition [%]"],
 "data": [
  ["CO[C@H]1/C=C/O[C@@]2(C)Oc3c(C)c(O)c4c(O)c(c(/C=N\\N5CCN(C6CCCC6)CC5)c(O)c4c3C2=O)NC(=O)/C(C)=C\\C=C\\[C@H](C)[C@H](O)[C@@H](C)[C@@H](O)[C@@H](C)[C@H](OC(C)=O)[C@@H]1C", -18.2],
  ["Nc1nc(OCc2cc(Br)cs2)c2[nH]cnc2n1", -7.49],
  ["O=C(O)CO.[NH2-].[NH2-].[Pt+2]", -20.9],
  ["O=c1cc(N2CCOCC2)oc2c1ccc1ccccc12", -14.5],
  ["COc1cc(C=O)c([N+](=O)[O-])cc1OC", 7.41],
  ["COc1ccc(C(=O)CC2(O)C(=O)Nc3c(Cl)ccc(Cl)c32)cc1 (stereo not drawn)", -14.8],
  ["Cc1cn([C@@H]2O[C@H](CO)[C@@H](O)[C@@H]2F)c(=O)[nH]c1=O", -36.4],
  ["Nc1ccc(-c2ccc3ncc4ccc(=O)n(-c5cccc(C(F)(F)F)c5)c4c3c2)cn1", -36.1]
]}

Need inhibition of NC1CCC(N[C@@H]2C[C@H]2c2ccccc2)CC1 (stereo partly drawn) , thanks. -4.73

inhibition lookup needed for CC(=O)[C@]1(N)Cc2c(O)c3c(c(O)c2[C@@H](O[C@H]2C[C@H](O)[C@H](O)CO2)C1)C(=O)c1ccccc1C3=O , thanks. -51.9
